target: UniProt:P03366; assay: Reverse transcriptase scintillation proximity assay (Example 4, Table 2); assay type: biochemical; settings: 0.05 h, 10 μM inhibitor; relative to dimethyl sulfoxide = 100%; read-out: % RT activity remaining at 10 μM
Decide using remaining activity at 10 µM alone. Strictly below 30%: Condition met. Equal to or above 30%: Condition not met.

{"SMILES_REPRESENTATION": "O=C(O)/C=C/c1ccc(N=Nc2c(S(=O)(=O)O)cc3cc(NC(=O)c4ccc(C(=O)Nc5ccc6c(O)c(N=Nc7ccc(/C=C/C(=O)O)cc7)c(S(=O)(=O)O)cc6c5)cc4)ccc3c2O)cc1", "SYSTEM_TESTED": "UniProt:P03366", "CATEGORY_LABEL": "Condition met"}
{"SMILES_REPRESENTATION": "COc1cc(N=Nc2c(S(=O)(=O)O)cc3cc(NC(=O)c4ccc(C(=O)Nc5ccc6c(O)c(N=Nc7cc(OC)c(OC)c(OC)c7)c(S(=O)(=O)O)cc6c5)cc4)ccc3c2O)cc(OC)c1OC", "SYSTEM_TESTED": "UniProt:P03366", "CATEGORY_LABEL": "Condition not met"}
{"SMILES_REPRESENTATION": "O=C(Nc1ccc2c(O)c(N=Nc3cccc4c(=O)[nH][nH]c(=O)c34)c(S(=O)(=O)O)cc2c1)Nc1ccc2c(O)c(N=Nc3cccc4c(=O)[nH][nH]c(=O)c34)c(S(=O)(=O)O)cc2c1", "SYSTEM_TESTED": "UniProt:P03366", "CATEGORY_LABEL": "Condition met"}
{"SMILES_REPRESENTATION": "Cc1cc(C(=O)O)ccc1N=Nc1c(S(=O)(=O)O)cc2cc(NC(=O)c3cccc(C(=O)Nc4ccc5c(O)c(N=Nc6ccc(C(=O)O)cc6C)c(S(=O)(=O)O)cc5c4)n3)ccc2c1O", "SYSTEM_TESTED": "UniProt:P03366", "CATEGORY_LABEL": "Condition met"}
{"SMILES_REPRESENTATION": "O=C(O)c1ccc(C(=O)O)c(N=Nc2c(S(=O)(=O)O)cc3cc(NC(=O)c4ccc(C(=O)Nc5ccc6c(O)c(N=Nc7cc(C(=O)O)ccc7C(=O)O)c(S(=O)(=O)O)cc6c5)cc4)ccc3c2O)c1", "SYSTEM_TESTED": "UniProt:P03366", "CATEGORY_LABEL": "Condition met"}
